- Test system: c-Abl (mouse)
- PROTOCOL NOTES: phosphorylation enrichment, bacterial display (enrichment ratio); higher = better substrate or ligand; peptides without Tyr show the background
Binary call on phosphorylation enrichment: Criterion met from 0.6 upward, Criterion not met beneath that.

Field: example entries. Status: answers known.
INSERT INTO results (sequence_text, qualitative_label) VALUES
  ('TPIYPYLLPKS [PLD2_Y580_T577I]', 'Criterion met'),
  ('LEIETDRRLLD [KRT12_Y429_Y429D]', 'Criterion met');

Q. For this sequence, is measured phosphorylation enrichment 0.6 or higher? SENAFYLSPDI [COL6A3_Y2827]
A. Criterion met

Q. For this sequence, is measured phosphorylation enrichment 0.6 or higher? KKMKCYHVGKV [HARS2_Y151_R150C]
A. Criterion met

Q. For this sequence, is measured phosphorylation enrichment 0.6 or higher? FSQQTYFRVSN [ABCD1_Y180_YF]
A. Criterion met

====

Reported phosphorylation enrichment values for the following sequences.
- MEASUREMENT TARGET: MERTK (UniProt Q12866)
- Sequence (Q12866 whole entry, looked up): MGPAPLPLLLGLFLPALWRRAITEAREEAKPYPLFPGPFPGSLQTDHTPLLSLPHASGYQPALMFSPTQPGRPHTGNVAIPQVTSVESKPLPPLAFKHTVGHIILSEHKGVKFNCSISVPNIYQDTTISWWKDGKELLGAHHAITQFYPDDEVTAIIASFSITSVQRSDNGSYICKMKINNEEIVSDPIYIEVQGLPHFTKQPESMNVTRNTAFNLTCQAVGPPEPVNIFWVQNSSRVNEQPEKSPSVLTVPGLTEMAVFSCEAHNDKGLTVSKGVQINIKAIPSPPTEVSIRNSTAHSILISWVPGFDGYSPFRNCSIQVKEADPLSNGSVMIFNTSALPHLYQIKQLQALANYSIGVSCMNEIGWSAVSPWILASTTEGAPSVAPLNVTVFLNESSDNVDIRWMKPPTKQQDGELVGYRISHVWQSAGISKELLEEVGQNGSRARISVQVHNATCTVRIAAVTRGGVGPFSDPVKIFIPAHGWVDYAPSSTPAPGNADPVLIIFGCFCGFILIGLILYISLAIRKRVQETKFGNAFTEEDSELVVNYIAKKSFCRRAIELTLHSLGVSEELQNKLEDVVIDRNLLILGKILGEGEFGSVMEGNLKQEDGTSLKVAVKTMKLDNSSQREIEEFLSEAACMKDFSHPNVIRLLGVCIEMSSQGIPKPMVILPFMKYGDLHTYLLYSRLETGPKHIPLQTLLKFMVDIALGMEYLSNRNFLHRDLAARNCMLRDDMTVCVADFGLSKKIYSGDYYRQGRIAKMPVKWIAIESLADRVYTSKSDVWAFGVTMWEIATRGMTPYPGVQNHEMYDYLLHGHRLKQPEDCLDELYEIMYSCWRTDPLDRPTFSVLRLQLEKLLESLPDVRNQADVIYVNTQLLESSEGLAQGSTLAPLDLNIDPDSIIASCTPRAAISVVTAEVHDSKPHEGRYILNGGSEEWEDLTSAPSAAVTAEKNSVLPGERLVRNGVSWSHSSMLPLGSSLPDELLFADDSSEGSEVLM
- PROTOCOL NOTES: phosphorylation enrichment, bacterial display (enrichment ratio); higher = better substrate or ligand; peptides without Tyr show the background

INSERT INTO results (sequence_text, measurement_target, value_kind, observed) VALUES
  ('VLTSKYCGGGG [HBA1_Y141_R142C]', 'MERTK (UniProt Q12866)', 'phosphorylation enrichment', 0.391),
  ('RLDRSYSYSYS [PEAR1_Y890]', 'MERTK (UniProt Q12866)', 'phosphorylation enrichment', 0.569),
  ('GPSTPYTKSKR [SMARCC2_Y324]', 'MERTK (UniProt Q12866)', 'phosphorylation enrichment', 0.353),
  ('AFLEDYFTSTK [SRC_Y522_E527K]', 'MERTK (UniProt Q12866)', 'phosphorylation enrichment', 0.504);

// next entry
Q. Please report the measured phosphorylation enrichment for RAILDYIASKY [GSTA3_Y74_N73D] tested on MERTK (UniProt Q12866).
A. 0.473

====

Reported phosphorylation enrichment values for the following sequences.
- MEASUREMENT TARGET: EPHB2 (UniProt P29323)
- Sequence (P29323 whole entry, looked up): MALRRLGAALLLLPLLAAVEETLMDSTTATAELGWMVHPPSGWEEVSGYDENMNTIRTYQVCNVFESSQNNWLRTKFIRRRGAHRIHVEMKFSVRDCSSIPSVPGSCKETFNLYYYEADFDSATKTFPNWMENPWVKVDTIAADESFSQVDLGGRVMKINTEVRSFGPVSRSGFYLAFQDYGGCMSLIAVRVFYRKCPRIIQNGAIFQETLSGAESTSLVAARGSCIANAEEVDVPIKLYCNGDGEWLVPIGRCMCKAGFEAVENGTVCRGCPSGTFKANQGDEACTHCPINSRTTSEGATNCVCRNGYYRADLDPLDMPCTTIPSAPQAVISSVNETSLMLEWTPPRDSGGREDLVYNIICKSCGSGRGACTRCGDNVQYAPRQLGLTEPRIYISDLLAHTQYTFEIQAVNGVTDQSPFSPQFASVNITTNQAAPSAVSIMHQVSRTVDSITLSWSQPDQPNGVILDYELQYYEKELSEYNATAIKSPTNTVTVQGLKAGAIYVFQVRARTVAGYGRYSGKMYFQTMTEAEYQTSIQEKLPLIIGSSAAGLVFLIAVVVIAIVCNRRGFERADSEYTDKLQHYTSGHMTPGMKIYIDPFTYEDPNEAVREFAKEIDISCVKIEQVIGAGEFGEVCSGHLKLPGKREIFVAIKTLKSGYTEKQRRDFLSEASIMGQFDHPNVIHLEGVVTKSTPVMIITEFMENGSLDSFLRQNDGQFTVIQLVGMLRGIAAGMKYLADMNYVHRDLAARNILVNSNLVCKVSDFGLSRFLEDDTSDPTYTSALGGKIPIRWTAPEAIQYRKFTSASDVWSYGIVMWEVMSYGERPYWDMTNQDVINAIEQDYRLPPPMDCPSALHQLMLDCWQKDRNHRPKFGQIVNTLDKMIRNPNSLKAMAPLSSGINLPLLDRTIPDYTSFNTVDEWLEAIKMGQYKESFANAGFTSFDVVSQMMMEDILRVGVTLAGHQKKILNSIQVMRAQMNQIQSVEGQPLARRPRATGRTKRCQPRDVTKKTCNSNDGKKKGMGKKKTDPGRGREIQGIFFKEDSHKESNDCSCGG
- PROTOCOL NOTES: phosphorylation enrichment, bacterial display (enrichment ratio); higher = better substrate or ligand; peptides without Tyr show the background
In your answer, state the number alone without any accompanying words.

// solved cases for phosphorylation enrichment follow
INSERT INTO measurements (sequence_text, value_kind, observed) VALUES
  ('FCGFSYDDIPD [TMEM230_Y112_R108C_YF]', 'phosphorylation enrichment', 0.707),
  ('QWPGPYDRPGA [HNRNPH2_Y210_R206W]', 'phosphorylation enrichment', 0.513),
  ('FHRQLYHKCTH [F12_Y58_YF]', 'phosphorylation enrichment', 0.495),
  ('RMETAYGPSVT [MXRA5_Y2717_E2716A]', 'phosphorylation enrichment', 0.46),
  ('VTSLKYSTPPY [BRIP1_Y916_S919P]', 'phosphorylation enrichment', 0.344),
  ('GNHVSYYQSDG [CACNA1C_Y1757]', 'phosphorylation enrichment', 0.485),
  ('FDDIAYIRKNL [PIK3CA_Y1021_T1025N]', 'phosphorylation enrichment', 0.506),
  ('PKEQKYSFLQD [GH1_Y68_N73D]', 'phosphorylation enrichment', 0.693),
  ('KDKLPYLYDDP [GPX2_Y125_P126L]', 'phosphorylation enrichment', 0.765),
  ('HKNNNYEPNLF [BRCA2_Y57]', 'phosphorylation enrichment', 0.89);

Q. Assign phosphorylation enrichment to the following record: ENGPYYASYPP [GDAP2_Y488_T489A]
A. 4.76

Q. Assign phosphorylation enrichment to the following record: VECRVYAEDPF [PCCA_Y401_YF]
A. 0.677

====

- MEASUREMENT TARGET: Fyn (UniProt P06241)
- Sequence (P06241 whole entry, looked up): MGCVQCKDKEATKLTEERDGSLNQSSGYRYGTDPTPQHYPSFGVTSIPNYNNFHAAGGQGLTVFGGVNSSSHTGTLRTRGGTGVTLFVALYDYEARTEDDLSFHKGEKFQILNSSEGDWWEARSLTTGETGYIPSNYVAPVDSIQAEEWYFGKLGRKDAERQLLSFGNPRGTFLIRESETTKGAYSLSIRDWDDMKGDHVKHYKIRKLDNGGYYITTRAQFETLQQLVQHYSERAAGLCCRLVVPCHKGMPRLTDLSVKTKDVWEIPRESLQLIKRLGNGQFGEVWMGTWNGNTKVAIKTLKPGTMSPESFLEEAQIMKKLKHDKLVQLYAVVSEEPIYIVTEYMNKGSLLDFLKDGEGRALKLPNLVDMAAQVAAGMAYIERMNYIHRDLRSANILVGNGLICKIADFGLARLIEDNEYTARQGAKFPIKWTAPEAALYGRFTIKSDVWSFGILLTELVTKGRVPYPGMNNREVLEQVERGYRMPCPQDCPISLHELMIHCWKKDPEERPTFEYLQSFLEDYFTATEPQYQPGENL
- PROTOCOL NOTES: phosphorylation enrichment, bacterial display (enrichment ratio); higher = better substrate or ligand; peptides without Tyr show the background
VALUE KIND: phosphorylation enrichment
In your answer, state the number alone without any accompanying words.

INSERT INTO measurements (sequence_text, observed) VALUES
  ('SFPHEYGSQEG [RBM10_Y48_R46H_YF]', 0.515),
  ('LITTPYIGFLG [KCNQ1_Y267_L266P]', 0.782),
  ('DRLASYPDKVR [KRT14_Y129_L130P]', 0.371),
  ('LLARLYRGQAL [FGFR4_Y390_G388R]', 0.795),
  ('EASEQHLTKAS [NRCAM_Y739_Y739H]', 0.48),
  ('ILTLKYPIKHG [ACTA1_Y71_E74K]', 0.431),
  ('MDDKEYFSVHN [MET_Y1234_Y1230D_YF]', 0.411),
  ('GGPTFYIDTNA [ACTL6A_Y69_YF]', 0.458),
  ('CPFNLYAAQLS [HGD_Y40_E42A_YF]', 0.648),
  ('KDQGGYTMHQD [MAPT_Y29]', 0.404);

Q. Assign phosphorylation enrichment to the following record: MSNFACVKREV [SCN1A_Y1694_Y1694C]
A. 0.449

Q. Assign phosphorylation enrichment to the following record: LKYAIYFEARE [LAMA2_Y1258]
A. 1.21

Q. Assign phosphorylation enrichment to the following record: NWGKKYPTCNS [PTPRZ1_Y53]
A. 0.523

Q. Assign phosphorylation enrichment to the following record: RSAGKDDVFLI [MECP2_Y120_Y120D_YF]
A. 0.557

Q. Assign phosphorylation enrichment to the following record: KLVQLYDVCTK [BTK_Y461_G462D]
A. 1.37

Q. Assign phosphorylation enrichment to the following record: DMDATYRPMYS [JUP_Y701]
A. 0.563

Q. Assign phosphorylation enrichment to the following record: FSAPNYCYRCG [PPP2CA_Y265]
A. 0.458

Q. Assign phosphorylation enrichment to the following record: FTYDPYSEEDP [IL2RB_Y387]
A. 1.28

Q. Assign phosphorylation enrichment to the following record: FSKDIYKRVTG [PANK2_Y405_N404I_YF]
A. 0.444

Q. Assign phosphorylation enrichment to the following record: AEYGLYGAMVW [VSX2_Y222_R227W]
A. 6.22

Q. Assign phosphorylation enrichment to the following record: KNNSIYVLANI [VNN1_Y134_V136L]
A. 1.14

Q. Assign phosphorylation enrichment to the following record: TKGMIYGGGGG [PSME1_Y249]
A. 0.49

Q. Assign phosphorylation enrichment to the following record: HFGCVYYGTLL [MET_Y1093_H1094Y]
A. 3.77

Q. Assign phosphorylation enrichment to the following record: ATVLNYLPKCI [A2M_Y817]
A. 0.437

====

- MEASUREMENT TARGET: Hck (UniProt P08631)
- Sequence (P08631 whole entry, looked up): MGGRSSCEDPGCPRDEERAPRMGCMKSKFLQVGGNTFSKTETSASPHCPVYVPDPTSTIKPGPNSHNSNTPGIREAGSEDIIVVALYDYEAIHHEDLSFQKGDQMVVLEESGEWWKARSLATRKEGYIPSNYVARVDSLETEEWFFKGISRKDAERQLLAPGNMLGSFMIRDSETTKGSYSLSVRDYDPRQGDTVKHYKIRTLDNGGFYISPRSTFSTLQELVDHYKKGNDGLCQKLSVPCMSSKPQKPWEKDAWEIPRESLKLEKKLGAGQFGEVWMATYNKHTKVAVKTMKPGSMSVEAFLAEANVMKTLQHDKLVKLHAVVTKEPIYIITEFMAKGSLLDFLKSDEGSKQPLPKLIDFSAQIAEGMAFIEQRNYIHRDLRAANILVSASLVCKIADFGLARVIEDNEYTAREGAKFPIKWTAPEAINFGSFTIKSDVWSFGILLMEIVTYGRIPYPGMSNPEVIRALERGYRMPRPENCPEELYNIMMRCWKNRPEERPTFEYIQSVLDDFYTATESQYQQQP
- PROTOCOL NOTES: phosphorylation enrichment, bacterial display (enrichment ratio); higher = better substrate or ligand; peptides without Tyr show the background
VALUE KIND: phosphorylation enrichment
In your answer, state the number alone without any accompanying words.

INSERT INTO assay_data (sequence_text, value_kind, observed) VALUES
  ('DGQVNYEELVQ [CALM1_Y139_F142L]', 'phosphorylation enrichment', 0.594);

Q. Assign phosphorylation enrichment to the following record: TTANRYLKVSD [MYOM2_Y871]
A. 0.607

Q. Assign phosphorylation enrichment to the following record: RMETAYGPSVT [MXRA5_Y2717_E2716A]
A. 0.63

Q. Assign phosphorylation enrichment to the following record: NVVHEYSSELE [FGB_Y172_N170H]
A. 0.481

====

- MEASUREMENT TARGET: Grb2 SH2 (UniProt P62993)
- Sequence (P62993 whole entry, looked up): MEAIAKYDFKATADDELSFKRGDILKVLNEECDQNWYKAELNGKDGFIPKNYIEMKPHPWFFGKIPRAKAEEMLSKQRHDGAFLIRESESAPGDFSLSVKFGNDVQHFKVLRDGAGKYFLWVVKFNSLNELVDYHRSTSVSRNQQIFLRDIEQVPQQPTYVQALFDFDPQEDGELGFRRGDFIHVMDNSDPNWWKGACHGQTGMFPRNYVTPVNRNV
- PROTOCOL NOTES: SH2 binding enrichment of the phosphorylated peptide, bacterial display (enrichment ratio); higher = better substrate or ligand; peptides without Tyr show the background
Binary call on SH2 binding enrichment: Condition met from 0.9 upward, Condition not met beneath that.

Field: example entries. Status: answers known.
INSERT INTO assay_data (sequence_text, qualitative_label) VALUES
  ('HLVLNYGVCIC [JAK2_Y613_V617I]', 'Condition met'),
  ('SPFMLYQFLKQ [RPAP3_Y567_D564Y_YF]', 'Condition met'),
  ('AHLLQYNHRVK [LGALS3_Y221]', 'Condition met'),
  ('CPFNLYAAQLS [HGD_Y40_E42A_YF]', 'Condition not met'),
  ('LITTPYIGFLG [KCNQ1_Y267_L266P]', 'Condition not met'),
  ('DMDATYRPMYS [JUP_Y701]', 'Condition not met'),
  ('RGDCMYAPLLG [AR_Y269]', 'Condition met'),
  ('EYLQKYKGFKI [SYNE1_Y6953]', 'Condition not met'),
  ('GHGEEYPVAGA [NOTCH3_Y2221_A2223V]', 'Condition not met'),
  ('WKEREYEVVRD [CPS1_Y634_I632R]', 'Condition met');

Q. For this sequence, is measured SH2 binding enrichment 0.9 or higher? LLRLAYLADIF [ZBED5_Y476]
A. Condition met

Q. For this sequence, is measured SH2 binding enrichment 0.9 or higher? LFMGDYVDRGF [PPP2CA_Y86_YF]
A. Condition met

Q. For this sequence, is measured SH2 binding enrichment 0.9 or higher? DVVKDCAFVHM [RBM14_Y114_Y114C]
A. Condition met

Q. For this sequence, is measured SH2 binding enrichment 0.9 or higher? YGGLRYGYGVL [KRTAP20-2_Y13]
A. Condition met

Q. For this sequence, is measured SH2 binding enrichment 0.9 or higher? NQNIGYKLGHR [KCNN3_Y268]
A. Condition met

Q. For this sequence, is measured SH2 binding enrichment 0.9 or higher? EYGSGYPNDPK [RNASEH2A_Y210_D205E]
A. Condition not met

Q. For this sequence, is measured SH2 binding enrichment 0.9 or higher? FASTGYVIAIQ [GRIN2B_Y762_G763V]
A. Condition met

Q. For this sequence, is measured SH2 binding enrichment 0.9 or higher? EVKAQYEDIAQ [KRT1_Y358]
A. Condition met

Q. For this sequence, is measured SH2 binding enrichment 0.9 or higher? "PGVNFYFQVSA"
A. Condition not met

Q. For this sequence, is measured SH2 binding enrichment 0.9 or higher? LEIETYPRLLD [KRT12_Y429_R430P]
A. Condition not met

Q. For this sequence, is measured SH2 binding enrichment 0.9 or higher? SDFSSYARTSI [TERT_Y949_YF]
A. Condition not met

Q. For this sequence, is measured SH2 binding enrichment 0.9 or higher? LWPIWYRCRRP [MRGPRX1_Y130_H133R]
A. Condition not met

Q. For this sequence, is measured SH2 binding enrichment 0.9 or higher? RSFLSYYTSHV [NEFL_Y442_P440L]
A. Condition met

Q. For this sequence, is measured SH2 binding enrichment 0.9 or higher? AKGMKYLASKK [MET_Y1194]
A. Condition met
